Hey, just so you know, these numbers are from patent US20220175766A1.

# ASSAY_NAME: Phase 1a multiple ascending dose study (oral solution): plasma pharmacokinetics
# Assay type: in vivo, human
# PARTICULARS: human, plasma, oral, 120 mg, Cohort 4, 120 mg; Day 1; Hour 6; read-out: Compound 1 concentration, Conc (SD)
RECORDED_ENDPOINT: concentration at 6 h (ng/mL)
API: value field is a number in ng/mL; no unit string.

Name the reported concentration at 6 h value associated with the molecule "CC(C)(C)OC(=O)N1CCN(Cc2ccn(Cc3ccc(Cl)cc3)c(=O)c2O)CC1" 1.14

* * *

# ASSAY_NAME: Phase 1a multiple ascending dose study (oral solution): plasma pharmacokinetics
# Type: in vivo, human
# PARTICULARS: human, plasma, oral, 60 mg, Cohort 1, 60 mg; Day 1; read-out: AUC(0-τ) column; AUClast is presented (footnote b), mean (SD)
RECORDED_ENDPOINT: AUC(0-t) (ng·h/mL)
API: value field is a number in ng·h/mL; no unit string.

Name the reported AUC(0-t) value associated with the molecule CC(C)(C)OC(=O)N1CCN(Cc2ccn(Cc3ccc(Cl)cc3)c(=O)c2O)CC1 [Compound 1] 5.32

* * *

# ASSAY_NAME: Phase 1a multiple ascending dose study (oral solution): plasma pharmacokinetics
# Type: in vivo, human
# PARTICULARS: human, plasma, oral, 240 mg, Cohort 3, 240 mg once daily; Day 7; read-out: AUC(0-t), mean
RECORDED_ENDPOINT: AUC(0-t) (ng·h/mL)
API: value field is a number in ng·h/mL; no unit string.

Name the reported AUC(0-t) value associated with the compound CC(C)(C)OC(=O)N1CCN(Cc2ccn(Cc3ccc(Cl)cc3)c(=O)c2O)CC1 [Compound 1] 139

* * *

# ASSAY_NAME: Phase 1a multiple ascending dose study (oral solution): plasma pharmacokinetics
# Type: in vivo, human
# PARTICULARS: human, plasma, oral, 60 mg, Cohort 1, 60 mg; Day 1; read-out: Cmax, mean (SD)
RECORDED_ENDPOINT: Cmax (ng/mL)
API: value field is a number in ng/mL; no unit string.

Name the reported Cmax value associated with the molecule "CC(C)(C)OC(=O)N1CCN(Cc2ccn(Cc3ccc(Cl)cc3)c(=O)c2O)CC1" 4.11

* * *

# ASSAY_NAME: Phase 1a single ascending dose study (oral solution): plasma pharmacokinetics
# Assay type: in vivo
# PARTICULARS: male, human, 240 mg, Cohort 5, 240 mg single oral dose (2.4 mg/mL, 100 mL)
RECORDED_ENDPOINT: Tmax (min)
API: value field is a number in min; no unit string.

Name the reported Tmax value associated with the compound "CC(C)(C)OC(=O)N1CCN(Cc2ccn(Cc3ccc(Cl)cc3)c(=O)c2O)CC1" 30
